Values compiled from paper PMC5063714.

System Under Test: chromodomain of CBX7 (human) (UniProt O95931)
Sequence (O95931 8-62): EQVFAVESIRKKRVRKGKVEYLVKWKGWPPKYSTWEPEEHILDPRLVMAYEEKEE
Test Protocol: AlphaScreen or HTRF
Square brackets hold non-standard residues; d marks the D form. Ends that are not written are not given here. * marks the point of attachment. Lys(Me3) = C[N+](C)(C)CCCC[C@H](N)C(=O)O; Bz = O=C(c1ccccc1)*
Test Readout: IC50

{"columns": ["Binder", "IC50"],
 "data": [
  ["Bz-FAL[Lys(Me3)] (also: C-terminal R2 = -H in place of -CO-Ser-OMe (no Ser)) [compound 7]", "> 60 µM"]
]}

// next entry
IC50 for Bz-AL[Lys(Me3)]S-OMe (SMILES COC(=O)[C@H](CO)NC(=O)[C@H](CCCC[N+](C)(C)C)NC(=O)[C@H](CC(C)C)NC(=O)[C@H](C)NC(=O)c1ccccc1) [compound 4] is > 60 µM
